These entries and their values trace back to PubChem BioAssay (EPA / NIEHS).

target: Oxysterols receptor LXR-beta (Homo sapiens) (UniProt P55055); experiment: ATG_LXRb_TRANS: Attagene TRANS-FACTORIAL HepG2 Assay for human Liver X Receptor beta (LXRb) (AID 2282981); conditions: HepG2 Attagene TRANS GAL4-LXRb reporter, mRNA
Sequence (P55055 whole entry, looked up, the tested form may be a part): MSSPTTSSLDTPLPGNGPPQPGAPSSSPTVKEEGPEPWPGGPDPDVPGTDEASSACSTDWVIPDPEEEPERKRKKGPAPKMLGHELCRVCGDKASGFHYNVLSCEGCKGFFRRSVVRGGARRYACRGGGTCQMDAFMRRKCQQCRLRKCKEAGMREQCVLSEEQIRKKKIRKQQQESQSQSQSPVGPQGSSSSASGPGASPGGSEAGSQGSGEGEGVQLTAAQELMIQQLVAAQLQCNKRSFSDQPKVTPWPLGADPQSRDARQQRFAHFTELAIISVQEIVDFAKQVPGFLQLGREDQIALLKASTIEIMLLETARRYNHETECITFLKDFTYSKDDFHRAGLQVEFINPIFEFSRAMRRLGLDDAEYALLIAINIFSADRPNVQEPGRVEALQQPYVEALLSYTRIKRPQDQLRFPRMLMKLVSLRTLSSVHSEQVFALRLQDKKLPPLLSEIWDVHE
Records with an inconclusive call do not appear. Active and inactive are the calls of the source. The calls were made as follows: active = hit-call score of the fitted dose curve at least 0.9, where 1 is the maximum; inconclusive = response in the unintended direction; inactive = score below 0.9.
Outcome codes: active, inactive

[[record]]
molecule = "CCNC(=O)NC(=O)C(C#N)=NOC"
category = "inactive"

[[record]]
molecule = "COC(=O)N(C(=O)N1CO[C@@]2(C(=O)OC)Cc3cc(Cl)ccc3C2=N1)c1ccc(OC(F)(F)F)cc1"
category = "inactive"

[[record]]
molecule = "CN/C(=N\\[N+](=O)[O-])NCc1cnc(Cl)s1"
category = "inactive"

[[record]]
molecule = "COP(=S)(OC)SCn1nnc2ccccc2c1=O"
category = "inactive"

[[record]]
molecule = "COc1cc(OC)nc(NC(=O)NS(=O)(=O)c2ncccc2OCC(F)(F)F)n1"
category = "inactive"

[[record]]
molecule = "CCCCOCN(C(=O)CCl)c1c(CC)cccc1CC"
category = "inactive"

[[record]]
molecule = "CC(C)C1(C)N=C(c2ncccc2C(=O)O)NC1=O (stereo not drawn)"
category = "inactive"

[[record]]
molecule = "CS(=O)(=O)c1ccc(C(=O)C2C(=O)CCCC2=O)c([N+](=O)[O-])c1"
category = "inactive"

[[record]]
molecule = "Cc1cc(C)nc(Nc2ccccc2)n1"
category = "inactive"

[[record]]
molecule = "CCN(CC)C(=O)C(C)Oc1cccc2ccccc12 (stereo not drawn)"
category = "inactive"

[[record]]
molecule = "CN=C=S"
category = "inactive"

[[record]]
molecule = "OC(c1ccc(Cl)cc1)(c1ccc(Cl)cc1)C(Cl)(Cl)Cl"
category = "inactive"

[[record]]
molecule = "CCCC(=NOCC)C1=C(O)CC(CC(C)SCC)CC1=O (stereo not drawn)"
category = "inactive"

[[record]]
molecule = "Nc1cnn(-c2ccccc2)c(=O)c1Cl"
category = "inactive"

[[record]]
molecule = "O=c1n(Cl)c(=O)n(Cl)c(=O)n1Cl"
category = "inactive"

[[record]]
molecule = "N#CN=C1SCCN1Cc1ccc(Cl)nc1"
category = "inactive"

[[record]]
molecule = "O=C(Nc1ccccc1-c1ccc(Cl)cc1)c1cccnc1Cl"
category = "inactive"

[[record]]
molecule = "N#Cc1c[nH]cc1-c1cccc2c1OC(F)(F)O2"
category = "inactive"

[[record]]
molecule = "CCN(CC)c1nc(C)cc(OP(=S)(OC)OC)n1"
category = "inactive"

[[record]]
molecule = "COc1cc(Cl)c(OC)cc1Cl"
category = "inactive"

[[record]]
molecule = "CNC(=O)Oc1cccc2ccccc12"
category = "inactive"

[[record]]
molecule = "COC(=O)NS(=O)(=O)c1ccc(N)cc1"
category = "inactive"

[[record]]
molecule = "CCC(C)n1c(=O)[nH]c(C)c(Br)c1=O (stereo not drawn)"
category = "inactive"

[[record]]
molecule = "CCOP(=S)(OCC)Oc1nc(Cl)n(C(C)C)n1"
category = "active"

[[record]]
molecule = "CCSC(=O)N1CCCCCC1"
category = "inactive"

[[record]]
molecule = "CCOc1nc(F)cc2nc(S(=O)(=O)Nc3c(Cl)cccc3Cl)nn12"
category = "inactive"

[[record]]
molecule = "CCCN(CC)CC1COC2(CCC(C(C)(C)C)CC2)O1 (stereo not drawn)"
category = "inactive"

[[record]]
molecule = "CC(C)=CC1C(C(=O)OCc2coc(Cc3ccccc3)c2)C1(C)C (stereo not drawn)"
category = "inactive"

